Hey, just so you know, these numbers are from patent US20210380703A1.

# MEASURED TARGET: human Fc (human)
# TEST PROTOCOL: ELISA, negative control
ENDPOINT LABEL: optical density (OD)
Hi! Could you send only the number? It should be in OD, unit omitted.

367_B09 (antibody, V domains shown) VH: EVQLLESGGGLVQPGGSLRLSCAASGFTFDSYGMHWVRQAPGKGLEWVASINYNGGYTSYADSVKGRFTISRDNSKNTLYLQMNSLRAEDTAVYYCARAANWHDTALDYWGQGTLVTVSS VL: DIQMTQSPSSLSASVGDRVTITCRASQSILSYVNWYQQKPGKAPKLVIYAATSRASGVPSRFSGSGSGTDFTLTISSLQPEDFATYYCQQSYENPLTFGGGTKVEIK | 0.476

Continue with the binder presented below.
(Q) Entry 373_E10 (antibody, V domains shown) VH: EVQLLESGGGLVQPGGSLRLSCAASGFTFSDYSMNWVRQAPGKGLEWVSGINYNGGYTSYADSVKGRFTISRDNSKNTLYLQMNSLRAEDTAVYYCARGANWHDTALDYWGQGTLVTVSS VL: DIQMTQSPSSLSASVGDRVTITCRASQSILTYVNWYQQKPGKAPKLVIYAATSRHSGVPSRFSGSGSGTDFTLTISSLQPEDFATYYCQQSYETPLTFGGGTKVEIK has what optical density?
(A) 0.188
